assay_procedure: antimalarial activity against Dd2 strain (AID 2302);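 further: 0% = DMSO untreated growth and 100% = chloroquine plus artemisinin killed control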
experimental_conditions: P. falciparum Dd2 in RBCs, LDH growth readout, 72 h; at 2 µM
Activity calls are given as the source filed them.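 How the source made its calls: active means growth inhibition above 50% at the single 2 µM test dose, taken to imply half-maximal potency below 2 µM; inactive means the rest.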
Your response should consist of one outcome taken from 1 for active, -1 for inactive

// known answers, use as guide
>>> print(df.to_string())
                                   compound  assigned_category
0               Nc1ncc(-c2ccc(Br)cc2)c(N)n1                 -1
1  CN1CCN(Cc2ccc(-c3ccc4c(Nc5cc(O)c(Cl)cc5F)ccnc4c3)o2)CC1                  1
2  CN1CCCC(CN2CCN(Cc3ccc(-c4cccc(-c5nc6ccccc6[nH]5)c4)cc3)CC2)C1 (stereo not drawn)                  1

-- ask Per the records of this test, what outcome belongs to "O=C(NCCN1CCCC1)c1cccc(-c2ccc(-c3nc4ccc(C(F)(F)F)cc4[nH]3)cc2)c1" ?
-- reply 1

-- ask Per the records of this test, what outcome belongs to "CC(C)(C)CNCC(C)(C)c1nc(-c2ccc(Cl)c(O)c2)c(-c2ccncc2)[nH]1" ?
-- reply 1
